Test system: SK-OV-3
TEST DESCRIPTION: NCI tumour cell line growth inhibition, 48 h
The source made the active and inactive calls. Rule as the data show it: active = GI50 up to about 1.1 µM and inactive = higher.
Field: GI50. Provide a value for each of the molecules that follow.

Please report the recorded GI50 for Cc1cc(S(=O)(=O)O)ccc1/N=N/c1ccc(/N=N/c2c(O)ccc3ccccc23)c(C)c1 .
> 100 µM (inactive)

Please report the recorded GI50 for COc1cc(C2c3cc4c(cc3C(O)C3CCC(=O)N23)OCO4)cc(OC)c1OC (stereo not given) .
80.2 µM (inactive)

Please report the recorded GI50 for COc1ccc2c(c1)CCN=C2Cc1ccccc1CCCl .
39.3 µM (inactive)

Please report the recorded GI50 for CC(C)(C)OC(=O)N1Cc2cc(O)ccc2C[C@H]1C(=O)O .
> 100 µM (inactive)

Please report the recorded GI50 for Cc1cn(C2CC(O)C(Cn3nncc3Cn3ncc(=O)[nH]c3=O)O2)c(=O)[nH]c1=O (stereo not given) .
77.1 µM (inactive)
